experiment: pKa, pI and % salt of peptidic buffers
Assay type: physicochemical
measurementParameters: Table 2, first acidic pKa
Square brackets hold non-standard residues; d marks the D form. Peptide text beside a SMILES is read from it. Cit = NC(=O)NCCC[C@H](N)C(=O)O
Catalogue of compounds with associated pka A (acidic pKa)
Just the number, please.

The following compounds have reported results that may help.
INSERT INTO results (compound, metricname, numericvalue) VALUES
  ('N=C(N)NCCC[C@H](NC(=O)[C@@H](N)CCC(=O)O)C(=O)O [Glu-Arg] (H-Glu-Arg-OH; N-terminus and C-terminus assumed)', 'pka A (acidic pKa)', 2.66),
  ('N=C(N)NCCC[C@H](NC(=O)[C@@H](N)Cc1ccc(O)cc1)C(=O)O', 'pka A (acidic pKa)', 2.64),
  ('N[C@@H](Cc1c[nH]cn1)C(=O)N1CC(O)C[C@H]1C(=O)O (stereo partly drawn) [His-Hydroxyproline]', 'pka A (acidic pKa)', 2.42);

Ask: Using the record for `N[C@@H](Cc1c[nH]cn1)C(=O)N[C@@H](Cc1c[nH]cn1)C(=O)O` , state its measured pka A (acidic pKa).
Result: 2.25

Ask: Given N[C@@H](Cc1ccc(O)cc1)C(=O)N[C@@H](Cc1c[nH]cn1)C(=O)O [Tyr-His] (H-Tyr-His-OH; N-terminus and C-terminus assumed) , respond with its pka A (acidic pKa).
Result: 2.42

Ask: For the compound CSCC[C@H](N)C(=O)N[C@@H](Cc1c[nH]cn1)C(=O)O [Met-His] (H-Met-His-OH; N-terminus and C-terminus assumed) , give its reported pka A (acidic pKa).
Result: 2.42

Ask: Please give the documented pka A (acidic pKa) of NC(=O)CC[C@H](N)C(=O)N[C@@H](Cc1c[nH]cn1)C(=O)O [GIn-His] (H-Gln-His-OH; N-terminus and C-terminus assumed)
Result: 2.42

Ask: # return recorded pka A (acidic pKa) for entry NC(=O)NCCC[C@H](NC(=O)[C@@H](N)Cc1c[nH]cn1)C(=O)O [His-Citrulline] (H-His-[Cit]-OH; N-terminus and C-terminus assumed)
Result: 3.05

Ask: Specify measured pka A (acidic pKa) for `N[C@@H](Cc1c[nH]cn1)C(=O)N[C@@H](Cc1c[nH]c2ccccc12)C(=O)O` .
Result: 3.07

Ask: For the compound `O=C(O)[C@H](Cc1c[nH]cn1)NC(=O)[C@@H]1CCCN1` , report pka A (acidic pKa).
Result: 2.42

Ask: // fetch pka A (acidic pKa) given entry NCC(=O)N[C@@H](Cc1c[nH]cn1)C(=O)O [Gly-His] (H-Gly-His-OH; N-terminus and C-terminus assumed)
Result: 2.42

Ask: Fill in reported pka A (acidic pKa) for this entry: NCCCC[C@H](NC(=O)[C@@H](N)CCC(=O)O)C(=O)O [Glu-Lys] (H-Glu-Lys-OH; N-terminus and C-terminus assumed)
Result: 2.85

###

experiment: pKa, pI and % salt of peptidic buffers
Type: physicochemical
measurementParameters: Table 2, second basic pKa
Square brackets hold non-standard residues; d marks the D form. Peptide text beside a SMILES is read from it. Cit = NC(=O)NCCC[C@H](N)C(=O)O
Consider the following compounds and their measured pka B (basic pKa) readings.
Answer with a number only.

Ask: Input CC[C@H](C)[C@H](N)C(=O)N[C@@H](Cc1c[nH]cn1)C(=O)O [Isoleucine-His] (H-Ile-His-OH; N-terminus and C-terminus assumed) , output reported pka B (basic pKa).
Result: 8.20

Ask: Tell me measured pka B (basic pKa) for N[C@@H](Cc1c[nH]cn1)C(=O)NCC(=O)O [His-Gly] (H-His-Gly-OH; N-terminus and C-terminus assumed) please.
Result: 7.91

Ask: Tell us which pka B (basic pKa) value is on record for NC(=O)NCCC[C@H](NC(=O)[C@@H](N)Cc1c[nH]cn1)C(=O)O [His-Citrulline] (H-His-[Cit]-OH; N-terminus and C-terminus assumed)
Result: 7.80

Ask: Please report the measured pka B (basic pKa) for N[C@@H](CC(=O)O)C(=O)N[C@@H](Cc1c[nH]cn1)C(=O)O [Asp-His] (H-Asp-His-OH; N-terminus and C-terminus assumed)
Result: 7.98

Ask: // fetch pka B (basic pKa) given entry NCCCC[C@H](N)C(=O)N[C@@H](Cc1c[nH]cn1)C(=O)O [Lys-His]
Result: 8.00

Ask: Please give measured pka B (basic pKa) of the following entry: NC(=O)NCCC[C@H](N)C(=O)N[C@@H](Cc1c[nH]cn1)C(=O)O [Citrulline-His] (H-[Cit]-His-OH; N-terminus and C-terminus assumed)
Result: 7.90

Ask: Quick one: give measured pka B (basic pKa) for NC(=O)CC[C@H](NC(=O)[C@@H](N)Cc1c[nH]cn1)C(=O)O [His-Gln] (H-His-Gln-OH; N-terminus and C-terminus assumed)
Result: 7.80

Ask: Please report the measured pka B (basic pKa) for NCC(=O)N[C@@H](Cc1c[nH]cn1)C(=O)O [Gly-His] (H-Gly-His-OH; N-terminus and C-terminus assumed)
Result: 8.39

Ask: Look up and report measured pka B (basic pKa) for this entry: O=C(O)[C@H](Cc1c[nH]cn1)NC(=O)[C@@H]1CC(O)CN1 (stereo partly shown) [Hydroxyproline-His]
Result: 8.23

Ask: Using known records, supply pka B (basic pKa) for N=C(N)NCCC[C@H](NC(=O)[C@@H](N)Cc1ccc(O)cc1)C(=O)O [Tyr-Arg]
Result: 11.62

Ask: Supply recorded pka B (basic pKa) for NCCC(=O)N[C@@H](Cc1cnc[nH]1)C(=O)O [Beta-Alanylhistidine] here.
Result: 8.70

Ask: Look up pka B (basic pKa) of NC(=O)C[C@H](N)C(=O)N[C@@H](Cc1c[nH]cn1)C(=O)O [Asn-His] (H-Asn-His-OH; N-terminus and C-terminus assumed) and report it.
Result: 7.30

Ask: For the compound C[C@H](N)C(=O)N[C@@H](Cc1c[nH]cn1)C(=O)O [Ala-His] (H-Ala-His-OH; N-terminus and C-terminus assumed) , give its measured pka B (basic pKa) value.
Result: 8.37
